- TEST TARGET: Diacylglycerol acyltransferase/mycolyltransferase Ag85C (Mycobacterium tuberculosis) (UniProt P9WQN9)
- Sequence (P9WQN9 whole entry): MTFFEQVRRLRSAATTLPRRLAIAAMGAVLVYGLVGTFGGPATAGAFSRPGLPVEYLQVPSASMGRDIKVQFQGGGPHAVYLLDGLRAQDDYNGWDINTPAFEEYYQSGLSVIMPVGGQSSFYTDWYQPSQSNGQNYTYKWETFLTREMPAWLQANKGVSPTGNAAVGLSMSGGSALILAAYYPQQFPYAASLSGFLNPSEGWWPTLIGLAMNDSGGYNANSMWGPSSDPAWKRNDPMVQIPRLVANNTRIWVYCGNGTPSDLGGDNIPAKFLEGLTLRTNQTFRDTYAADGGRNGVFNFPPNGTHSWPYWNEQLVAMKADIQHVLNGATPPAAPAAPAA
- TEST METHOD NOTES: Binding affinity to substrate binding site of multidrug resistance Mycobacterium tuberculosis antigen 85C by NMR assay
Activity calls are given as the source filed them. The calls are words filed in the database; no cut-off is given here.
Answer with one of the outcomes active, inactive

Completed entries (count: 6):
- COMPOUND: "CCN1CCc2c(sc(N)c2C#N)C1"
  CATEGORY LABEL: "inactive"
- COMPOUND: "COC(=O)c1c(N)sc2c1CCCC2"
  CATEGORY LABEL: "active"
- COMPOUND: "CCCC1CCc2c(sc(N)c2C(N)=O)C1 (centres undefined)"
  CATEGORY LABEL: "active"
- COMPOUND: "N#Cc1c(N)sc2c1C1CCN2CC1"
  CATEGORY LABEL: "inactive"
- COMPOUND: "CC1(C)Cc2c(sc(N)c2C#N)CO1"
  CATEGORY LABEL: "inactive"
- COMPOUND: "CC(C)C(=O)Nc1sc2c(c1C#N)CCCC2"
  CATEGORY LABEL: "inactive"

query: What did the test return for CCCC1CCc2c(sc(N)c2C#N)C1 (centres undefined) ?
result: active

query: What did the test return for CC1CCc2c(sc(N)c2C#N)C1 (centres undefined) ?
result: active

query: What did the test return for `N#Cc1c(N)sc2c1CCCC2` ?
result: active

query: What did the test return for `O=c1[nH]c(-c2ccncc2)nc2sc3c(c12)CCCC3` ?
result: inactive

query: What did the test return for `CC(=O)c1c(N)sc2c1CCCC2` ?
result: active

query: What did the test return for CCC1CCc2c(sc(N)c2C(N)=O)C1 (centres undefined) ?
result: active

query: What did the test return for `N#Cc1c(N)sc2c1CCCCC2` ?
result: active

query: What did the test return for CC1CCc2c(sc(N)c2C(N)=O)C1 (centres undefined) ?
result: active

query: What did the test return for CCC1(C)Cc2c(sc(N)c2C#N)CO1 (centres undefined) ?
result: inactive

query: What did the test return for CCC1CCc2c(sc(N)c2C#N)C1 (centres undefined) ?
result: active

query: What did the test return for `Nc1sc2c(c1C(=O)NCc1ccccc1)CCCC2` ?
result: inactive

query: What did the test return for `CC(=O)Nc1sc2c(c1C#N)CCCC2` ?
result: inactive

query: What did the test return for CCOC(=O)c1c(N)sc2c1C(C)CCC2 (centres undefined) ?
result: active

----------
- Tested on: Mycobacterium tuberculosis
- TEST METHOD NOTES: Growth inhibition of multidrug resistance Mycobacterium tuberculosis 2745/09
- Format: functional
# MIC listing for each entry below
Give just the number in µg/mL; leave the unit off.

Before answering, review these 3 worked examples.
- COMPOUND: "CCC1CCc2c(sc(N)c2C#N)C1 (centres undefined)"
  RESULT UNITS: "µg/mL"
  MIC: 50
- COMPOUND: "CCCC1CCc2c(sc(N)c2C#N)C1 (centres undefined)"
  RESULT UNITS: "µg/mL"
  MIC: 50
- COMPOUND: "CCCOc1ccc2nc(N)sc2c1"
  RESULT UNITS: "µg/mL"
  MIC: 20

Attention now shifts to the item below.
query: Need MIC of `N#Cc1c(N)sc2c1CCCCC2` , thanks.
result: 500
